Sourced from the array DNA melting data of Ke et al. (doi:10.1101/2024.01.08.574731)

Each item that follows carries a reported Tm.
test: melting temperature; fluorescence melt of hairpins on a sequencing array, two-state fit, raised by 9.35 °C to match UV melts; settings: sodium 0.088 M
Parameter: Tm

chain_sequence="GCGTATTAACGC ((((....))))" observed_result="53.8 °C"
chain_sequence="GCCTGCGAAAGCAAAGGC ((((((....)))..)))" observed_result="59.3 °C"
chain_sequence="GAGGACGAAAGTCCGCTC ((((((....)))..)))" observed_result="67.5 °C"
chain_sequence="GCTAATGGAAACACTAGC ((((.((....)).))))" observed_result="31.2 °C"
chain_sequence="GGATCCGAAAGGAAATCC ((((((....)))..)))" observed_result="38.2 °C"
chain_sequence="GATAGAGGAAACTCTACC (.(((((....))))).)" observed_result="23.5 °C"
chain_sequence="GATCTTTGTTAAGATC ((((((....))))))" observed_result="44 °C"
chain_sequence="GGTACCGAAAGGTCGACC ((((((....)))..)))" observed_result="36.5 °C"
chain_sequence="GGCAGAGGAAACTCTGCC (((((((....)))))))" observed_result="67.6 °C"
chain_sequence="GTCTTGCGAAAGCAGAC (((.(((....))))))" observed_result="52.1 °C"
chain_sequence="GCTAAGCGAAAGCGTTGC ((.(.((....)).).))" observed_result="53.4 °C"
chain_sequence="GCAGGCGGAAACGTCTGC ((((.((....)).))))" observed_result="63.1 °C"
chain_sequence="GCCCAGCGAAAGCTTCGC ((..(((....)))..))" observed_result="40.3 °C"
chain_sequence="GCGACCGAAAGGTCTCGC ((((((....)))..)))" observed_result="50.2 °C"
chain_sequence="GCGTTGCGAAAGCACTGC ((..(((....)))..))" observed_result="46.1 °C"
chain_sequence="GCGATTCTCGC ((((...))))" observed_result="52 °C"
chain_sequence="GGGGGATCGAAAGATCCC (((..(((....))))))" observed_result="59.9 °C"
chain_sequence="GCGCACTCGAAAGAGCGC (((..(((....))))))" observed_result="57.1 °C"
chain_sequence="GTAAGGGGAAACCCTCAC ((.((((....)))).))" observed_result="30.2 °C"
chain_sequence="GATCGATTGGTCGATC ((((((....))))))" observed_result="53.2 °C"
chain_sequence="GCGTACGAAAGTATGCGC ((((((....)))..)))" observed_result="58.4 °C"
chain_sequence="GCAGCCGAAAGGCTTGC ((((((....))).)))" observed_result="62 °C"
chain_sequence="GTGGTCGAAAGACTCCAC ((((((....)))..)))" observed_result="38.9 °C"
chain_sequence="GCGCCAGCGAAAGCTCGC (((..(((....))))))" observed_result="45 °C"
chain_sequence="GGCTACGGAAACGTGGTC (.(.(((....))).).)" observed_result="42 °C"
chain_sequence="GCTAGTGGAAACACCAGC (((.(((....))).)))" observed_result="39.2 °C"
chain_sequence="GATCGAACGTCGATC ((((((...))))))" observed_result="49.3 °C"
chain_sequence="GCTTGCGAAAGCAGAAGC ((((((....)))..)))" observed_result="47.2 °C"
chain_sequence="GCGACGCGAAAGCCTGGC ((.(.((....)).).))" observed_result="28.1 °C"
chain_sequence="GCGAGGGCGAAAGCCCGC (((..(((....))))))" observed_result="59.5 °C"
chain_sequence="GATCAGGCAACTGATC ((((((....))))))" observed_result="60.6 °C"
chain_sequence="GGCTAAACGAAAGTTGCC (((..(((....))))))" observed_result="47.6 °C"
chain_sequence="GATCCACGAATGGATC ((((((....))))))" observed_result="48.1 °C"
chain_sequence="GCGTCTCGAAAGAGCGC (((.(((....))))))" observed_result="66.8 °C"
chain_sequence="GAGCTGGGAAACTAGCTC (((((.(....).)))))" observed_result="52.5 °C"
chain_sequence="GCTTTAGGAAACTAAAGC (((((((....)))))))" observed_result="54.4 °C"
chain_sequence="GACTGCGGAAACGCAATC ((.((((....)))).))" observed_result="38 °C"
chain_sequence="GGACCCGAAAGGGTATCC ((((((....)))..)))" observed_result="38.9 °C"
chain_sequence="GTGCTCCGAAAGGAACAC (((.(((....))).)))" observed_result="52.2 °C"
chain_sequence="GGGTGCGGAAACGCATCC ((.((((....)))).))" observed_result="64.7 °C"
chain_sequence="GATAACGCGAAAGCGATC (((..(((....))))))" observed_result="24.1 °C"
chain_sequence="GCGTTGTACGC ((((...))))" observed_result="65.8 °C"
chain_sequence="GACACTGGAAACAGCGTC (((.(((....))).)))" observed_result="46.4 °C"
chain_sequence="GTAGCGCGAAAGCGTTAC (((.(((....))).)))" observed_result="58.3 °C"
chain_sequence="GTGGTCGGAAACGGCCAC ((((.((....)).))))" observed_result="63.5 °C"
chain_sequence="GTTCAAGAAATTGAAC ((((((....))))))" observed_result="45.1 °C"
chain_sequence="GAGATGGGAAACCATTTC ((.((((....)))).))" observed_result="35 °C"
chain_sequence="GAGACTCCGAAAGGACTC (((..(((....))))))" observed_result="25.6 °C"
chain_sequence="GTTACCGAAAGGTGTAAC ((((((....)))..)))" observed_result="32.2 °C"
chain_sequence="CGTTGCGGAAACGCTACG (((.(((....))).)))" observed_result="56 °C"
